- measurementProtocol: Cell Viability - LYMP2-014 (AID 983);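 note: cells exposed to compound for 24 h at 37 °C; nearly all actives have a fitted effect of over 50% in size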
- testConditions: LYMP2-014 lymphoblastoid cells, viability qHTS; series mostly up to 92.2 µM
Results filed as inconclusive are left out. Activity calls are given as the source filed them. Calls come from the whole dose curve; as a rule, active = well fitted cell-killing curve with a large enough effect; inconclusive = small, poorly fitted or top-dose-only effect; inactive = flat fitted curve, though single readings scatter.
Labels: class 1 = active, class 0 = inactive

molSmiles	cat
O=Cc1ccc(Cl)c(Cl)c1	class 0
O=C1OC2(c3cc(Br)c(O)c(Br)c3Oc3c2cc(Br)c(O)c3Br)c2c(Cl)c(Cl)c(Cl)c(Cl)c21	class 0
CC(=O)Nc1ccc(C(=O)CCl)cc1	class 1
O=C=Nc1ccc(Cc2ccc(N=C=O)cc2)cc1	class 0
CNc1ccc(O)cc1	class 1
O=C(OCC(COC(=O)c1ccccc1)(COC(=O)c1ccccc1)COC(=O)c1ccccc1)c1ccccc1	class 0

* * *

- Tested on: ATS189
- measurementProtocol: qHTS profiling for inhibitors of Plasmodium falciparum proliferation (AID 504749); note: nearly all actives have a fitted effect of over 60% in size; note: potency is the fitted concentration of half-maximal effect
- testConditions: P. falciparum in erythrocytes, SYBR Green DNA, 72 h; series mostly up to 28.7 µM
Results filed as inconclusive are left out. Activity calls are given as the source filed them. Calls come from the whole dose curve; as a rule, active = well fitted inhibition curve with a large enough effect; inconclusive = small, poorly fitted or top-dose-only effect; inactive = flat fitted curve, though single readings scatter.
quantity: Potency

compound	observed
CC[C@]1([C@H]2O[C@@H]([C@@H]3O[C@](O)(CO)[C@@H](C)C[C@H]3C)C[C@H]2C)CC[C@@H]([C@]2(C)CC[C@@]3(C[C@@H](O)[C@@H](C)[C@@H]([C@H](C)[C@H](OC)[C@H](C)C(=O)O)O3)O2)O1	50.1 nM (active)
OCC(CO)NC1C[C@](O)(CO)[C@@H](O)[C@H](O)[C@H]1O (some centres undefined)	inactive
CNC1=CN(O)C(c2ccccc2)=c2cc(Cl)ccc2=N1	4470 nM (active)
C=C1C(n2cnc3c(=O)[nH]c(N)nc32)C[C@H](O)[C@H]1CO (some centres undefined)	inactive

* * *

- assaySystem: Cytochrome P450 2C9 (Homo sapiens) (UniProt P11712)
- Sequence (P11712 whole entry, looked up): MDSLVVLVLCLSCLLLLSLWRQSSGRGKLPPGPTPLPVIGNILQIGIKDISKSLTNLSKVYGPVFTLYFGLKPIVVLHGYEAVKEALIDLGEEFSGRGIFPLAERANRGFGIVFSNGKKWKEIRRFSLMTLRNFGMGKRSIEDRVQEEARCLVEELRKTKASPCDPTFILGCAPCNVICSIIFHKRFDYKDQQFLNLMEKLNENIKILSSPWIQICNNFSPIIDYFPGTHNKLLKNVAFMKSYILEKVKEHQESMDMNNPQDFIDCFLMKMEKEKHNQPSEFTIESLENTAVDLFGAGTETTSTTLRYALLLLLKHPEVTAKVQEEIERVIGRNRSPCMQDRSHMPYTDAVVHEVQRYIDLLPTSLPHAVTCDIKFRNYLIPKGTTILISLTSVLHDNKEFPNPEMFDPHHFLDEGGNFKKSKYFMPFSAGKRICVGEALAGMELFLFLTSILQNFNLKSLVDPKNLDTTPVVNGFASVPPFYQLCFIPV
- measurementProtocol: qHTS Assay for Inhibitors and Substrates of Cytochrome P450 2C9 (AID 883); note: nearly all actives have a fitted effect of over 60% in size
- testConditions: recombinant CYP2C9, luciferin-H luminescence, 60 min; series mostly up to 57.1 µM
Inconclusive results are not listed. Active and inactive are the calls of the source. The call rests on the fitted dose curve; in most records, active means well fitted inhibition curve with a large enough effect; inconclusive means small, poorly fitted or top-dose-only effect; inactive means no such curve, though single readings can be large or run the other way.
Possible outcomes: 1.0 for active, 0.0 for inactive

molSmiles	assaySystem	cat
O=C(CCc1ccc(O)cc1)c1c(O)cc(O)cc1O[C@@H]1O[C@@H](CO)[C@@H](O)[C@@H](O)[C@H]1O	Cytochrome P450 2C9 (Homo sapiens) (UniProt P11712)	1.0
O=c1cc(-c2ccc(O)c(O)c2)oc2cccc(O)c12	Cytochrome P450 2C9 (Homo sapiens) (UniProt P11712)	1.0
CC(C)=CCC/C(C)=C/COc1c2ccoc2cc2oc(=O)ccc12	Cytochrome P450 2C9 (Homo sapiens) (UniProt P11712)	1.0
CC(C)[C@@H](CC(=O)N[C@@H]1CCNC[C@H]1C(=O)N[C@H](CC(=O)N[C@@H](CCC(=O)O)CC(=O)O)Cc1c[nH]c2ccccc12)NC(=O)C[C@H](CO)NC(=O)[C@@H]1CCCC[C@H]1N	Cytochrome P450 2C9 (Homo sapiens) (UniProt P11712)	0.0
C=C/C(=C\C)C[C@@H](CC(=O)N[C@@H](CCC(=O)O)CC(=O)O)NC(=O)[C@@H]1CNCC[C@H]1NC(=O)C[C@@H](NC(=O)C[C@H](Cc1ccccc1)NC(=O)[C@@H]1CCCC[C@H]1N)C(C)C	Cytochrome P450 2C9 (Homo sapiens) (UniProt P11712)	0.0
CC(C)[C@@H](CC(=O)N[C@@H]1CCNC[C@H]1C(=O)N[C@H](CC(=O)N[C@@H](CCC(=O)O)CC(=O)O)Cc1c[nH]c2ccccc12)NC(=O)C[C@H](Cc1ccccc1)NC(=O)[C@@H]1CCCC[C@H]1N	Cytochrome P450 2C9 (Homo sapiens) (UniProt P11712)	0.0
CC(=O)Oc1ccc(/C=C\C(=O)C[C@@H]2O[C@@H](Oc3cc(OC(C)=O)c4c(c3)O[C@@H](c3ccc(OC(C)=O)cc3)CC4=O)[C@H](OC(C)=O)[C@H](OC(C)=O)[C@@H]2OC(C)=O)cc1	Cytochrome P450 2C9 (Homo sapiens) (UniProt P11712)	0.0
Cc1ccc2oc(-c3ccccc3)c(O)c(=O)c2c1	Cytochrome P450 2C9 (Homo sapiens) (UniProt P11712)	0.0
NCCC[C@@H](CC(=O)N[C@@H]1CCCC[C@H]1C(=O)N[C@H](CC(=O)N[C@@H](CCC(=O)O)CC(=O)O)Cc1c[nH]c2ccccc12)NC(=O)C[C@H](Cc1ccccc1)NC(=O)[C@@H]1CNCC[C@H]1N	Cytochrome P450 2C9 (Homo sapiens) (UniProt P11712)	0.0
